Tested on: A549
Assay: Cytotoxicity against human A549 cells after 96 hrs by SRB assay
Type: functional, cell-based
Conditions: A549, 96 h
Each entry below lists one item and its recorded IC50 value.
endpoint label: IC50

- chemical smiles: "O=C(CCCN1CCCC1)Nc1cccc(NC(=O)c2cccc(NC(=O)Nc3cccc(C(=O)Nc4cccc(NC(=O)CCCN5CCCC5)c4)c3)c2)c1"
  target under test: "A549"
  reported result: "> 50 µM"
- chemical smiles: "O=C(CN1CCCC1)Nc1cccc(NC(=O)c2ccc(NC(=O)Nc3ccc(C(=O)Nc4cccc(NC(=O)CN5CCCC5)c4)cc3)cc2)c1"
  target under test: "A549"
  reported result: "> 50 µM"
- chemical smiles: "O=C(CN1CCCC1)Nc1cc(NC(=O)Nc2cc(NC(=O)CN3CCCC3)cc(C(=O)Nc3ccccc3)c2)cc(C(=O)Nc2ccccc2)c1"
  target under test: "A549"
  reported result: "> 50 µM"
